# target or test system: human melanocortin 1 receptor (human, UniProt Q01726 1-317)
# Sequence (Q01726 whole entry): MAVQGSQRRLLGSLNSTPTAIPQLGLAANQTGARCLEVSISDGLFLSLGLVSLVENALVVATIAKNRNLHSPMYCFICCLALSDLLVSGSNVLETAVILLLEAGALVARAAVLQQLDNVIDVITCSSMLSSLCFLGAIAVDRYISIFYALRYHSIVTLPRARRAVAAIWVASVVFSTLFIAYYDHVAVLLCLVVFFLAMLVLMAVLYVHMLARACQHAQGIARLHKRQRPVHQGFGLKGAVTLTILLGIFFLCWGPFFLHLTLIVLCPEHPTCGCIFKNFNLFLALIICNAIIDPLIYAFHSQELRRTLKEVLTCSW
# test method notes: cell-based or functional assay
Positions of bridges follow the written chain, without caps; N, C: chain ends. Non-standard residues stand in square brackets, D forms with d. Pen = CC(C)(S)[C@H](N)C(=O)O; Thz = O=C(O)[C@@H]1CSCN1
parameter: MC1R cAMP EC50 (nM)
Dear colleague, please return just the value in nM, with no unit written.

cyclo(CAH[dF]HWCAH[dF]HW) (disulfide 1-7; SMILES C[C@@H]1NC(=O)[C@@H]2CSSC[C@H](NC(=O)[C@H](Cc3c[nH]c4ccccc34)NC(=O)[C@H](Cc3c[nH]cn3)NC(=O)[C@@H](Cc3ccccc3)NC(=O)[C@H](Cc3c[nH]cn3)NC1=O)C(=O)N[C@@H](C)C(=O)N[C@@H](Cc1c[nH]cn1)C(=O)N[C@H](Cc1ccccc1)C(=O)N[C@@H](Cc1c[nH]cn1)C(=O)N[C@@H](Cc1c[nH]c3ccccc13)C(=O)N2, also called c[c[Cys-Ala-His-D-Phe-His-Trp-Cys]-Ala-His-D-Phe-His-Trp]) [Chem. 24]; 178
cyclo(C[Thz]H[dF]HWCAKKKR) (disulfide 1-7; SMILES C[C@@H]1NC(=O)[C@@H]2CSSC[C@H](NC(=O)[C@H](CCCNC(=N)N)NC(=O)[C@H](CCCCN)NC(=O)[C@H](CCCCN)NC(=O)[C@H](CCCCN)NC1=O)C(=O)N1CSC[C@H]1C(=O)N[C@@H](Cc1c[nH]cn1)C(=O)N[C@H](Cc1ccccc1)C(=O)N[C@@H](Cc1c[nH]cn1)C(=O)N[C@@H](Cc1c[nH]c3ccccc13)C(=O)N2, also called c[c[Cys-THAZ-His-D-Phe-His-Trp-Cys]-Ala-Lys-Lys-Lys-Arg]) [Chem. 100]; 18.5
cyclo(CGH[dF]RWCGH[dF]RW) (disulfide 1-7; SMILES N=C(N)NCCC[C@@H]1NC(=O)[C@@H](Cc2ccccc2)NC(=O)[C@H](Cc2c[nH]cn2)NC(=O)CNC(=O)[C@@H]2CSSC[C@H](NC(=O)[C@H](Cc3c[nH]c4ccccc34)NC1=O)C(=O)NCC(=O)N[C@@H](Cc1c[nH]cn1)C(=O)N[C@H](Cc1ccccc1)C(=O)N[C@@H](CCCNC(=N)N)C(=O)N[C@@H](Cc1c[nH]c3ccccc13)C(=O)N2, also called c[c[Cys-Gly-His-D-Phe-Arg-Trp-Cys]-Gly-His-D-Phe-Arg-Trp]) [Chem. 2]; 1.54
cyclo(CKH[dF]HWCKKKKW) (disulfide 1-7; SMILES NCCCC[C@@H]1NC(=O)[C@H](CCCCN)NC(=O)[C@H](CCCCN)NC(=O)[C@@H]2CSSC[C@H](NC(=O)[C@H](Cc3c[nH]c4ccccc34)NC(=O)[C@H](CCCCN)NC1=O)C(=O)N[C@@H](CCCCN)C(=O)N[C@@H](Cc1c[nH]cn1)C(=O)N[C@H](Cc1ccccc1)C(=O)N[C@@H](Cc1c[nH]cn1)C(=O)N[C@@H](Cc1c[nH]c3ccccc13)C(=O)N2, also called c[c[Cys-Lys-His-D-Phe-His-Trp-Cys]-Lys-Lys-Lys-Lys-Trp]) [Chem. 77]; 49.8
cyclo(CAH[dF]HWCAKKKW) (disulfide 1-7; SMILES C[C@@H]1NC(=O)[C@@H]2CSSC[C@H](NC(=O)[C@H](Cc3c[nH]c4ccccc34)NC(=O)[C@H](Cc3c[nH]cn3)NC(=O)[C@@H](Cc3ccccc3)NC(=O)[C@H](Cc3c[nH]cn3)NC1=O)C(=O)N[C@@H](C)C(=O)N[C@@H](CCCCN)C(=O)N[C@@H](CCCCN)C(=O)N[C@@H](CCCCN)C(=O)N[C@@H](Cc1c[nH]c3ccccc13)C(=O)N2, also called c[c[Cys-Ala-His-D-Phe-His-Trp-Cys]-Ala-Lys-Lys-Lys-Trp]) [Chem. 60]; 53.3

// next item, MC1R cAMP EC50 requested
For this binder ( cyclo([Pen]PH[dF]HWCAKKKR) (disulfide 1-7; SMILES C[C@@H]1NC(=O)[C@@H]2CSSC(C)(C)[C@H](NC(=O)[C@H](CCCNC(=N)N)NC(=O)[C@H](CCCCN)NC(=O)[C@H](CCCCN)NC(=O)[C@H](CCCCN)NC1=O)C(=O)N1CCC[C@H]1C(=O)N[C@@H](Cc1c[nH]cn1)C(=O)N[C@H](Cc1ccccc1)C(=O)N[C@@H](Cc1c[nH]cn1)C(=O)N[C@@H](Cc1c[nH]c3ccccc13)C(=O)N2, also called c[c[Pen-Pro-His-D-Phe-His-Trp-Cys]-Ala-Lys-Lys-Lys-Arg]) [Chem. 92] ), measured MC1R cAMP EC50 is 47.1
